test system: U2OS; experiment: Incucyte cell viability with U2OS; format: toxicity, cell-based; conditions: human, 6 h, 10 µM, compound concentration 10 uM, replicate number 1; further: unitless GR value; below 1 slowed growth and below 0 cell loss
// boundary case: Growth Rate equal to 0.8 maps to false (0); strictly smaller maps to true (1)

>>> class_assignment("CCCS(=O)(=O)Nc1ccc(F)c(Nc2ncnc3cnc(-n4cnc(C)c4)nc23)c1F")
"true (1)"
>>> class_assignment("Cc1cc(CN)cc(C)c1-c1ncn(C)c1-c1ccnc2cc(F)ccc12.Cl")
"true (1)"
>>> class_assignment("Cc1ncsc1-c1ccc(CNC(=O)[C@@H]2C[C@@H](O)CN2C(=O)[C@@H](NC(=O)CCCCNC(=O)c2ccc(-c3ccc(N4CCN(C)CC4)c(NC(=O)c4c[nH]c(=O)cc4C(F)(F)F)c3)cc2)C(C)(C)C)cc1")
"false (0)"
>>> class_assignment("Cn1ncnc1COc1nn2c(-c3cc(F)ccc3F)nnc2cc1C(C)(C)C")
"true (1)"
>>> class_assignment("CCCc1c(OCCCOc2ccc(OCC(=O)O)cc2)ccc(C(C)=O)c1O")
"false (0)"
